The values you see were collected from the array DNA melting data of Ke et al. (doi:10.1101/2024.01.08.574731).

test_details: melting temperature; fluorescence melt of hairpins on a sequencing array, two-state fit, raised by 9.35 °C to match UV melts
run_parameters: sodium 0.088 M
Label Y when Tm is at or above 50 °C; otherwise label N.

In [3]: df
Out[3]:
                                 seq_text  qualitative_label
 0  GTTGAGGGAAACTTCAGC (.(((.(....).))).)                  N
 1  GCACTCGGAAACAAGTGC (((((.(....).)))))                  N
 2  GCGTACGCGAAAGCGCGC (((..(((....))))))                  Y
 3      GATCGGTCGCCCGATC ((((((....))))))                  Y
 4          GGGTTGAAAAACCC (((((....)))))                  Y
 5  GCTTACGGAAACGCAAGC ((((.((....)).))))                  N
 6  GCCCGTCGAAAGACTGGC (((.(((....))).)))                  Y
 7  GGCAGCGAAAGCTACGCC ((((((....)))..)))                  Y
 8  GCTATCGAAAGATCTAGC ((((((....)))..)))                  N
 9  GCGAAGCGAAAGCCTCGC ((((.((....)).))))                  Y
10  GCATTCGAAAGAAAGTGC ((((((....)))..)))                  N
11  GAAGGGGGAAACCCCTCC (.(((((....))))).)                  N
12  GCTAGTGGAAACACTAGC (((((((....)))))))                  Y
13      GATCGGTCACCCGATC ((((((....))))))                  Y
14  GGGCTCGAAAGAGAGCCC ((((((....)))..)))                  Y
15  GTGGGCGAAAGCCGCCAC ((((((....)))..)))                  N
16  GGTTCCGAAAGGAGAACC ((((((....)))..)))                  N
17  GCAGACGAAAGTCGATGC ((((((....)))..)))                  N
18      GATCAAAAGCTTGATC ((((((....))))))                  N
19  GACCAGGGAAACCTAGTC (((.(((....))).)))                  N
20    GCCGTGCGAAAGCAGGC (((.(((....))))))                  Y

----------
test_details: folding enthalpy; higher = less favourable; fluorescence melt of hairpins on a sequencing array, two-state fit
run_parameters: sodium 0.088 M
Classification field: enter 1 (yes) for folding enthalpy values not below -30 kcal/mol, 0 (no) for values below it.

                                seq_text  qualitative_label
0  GCAATGCGAAAGCAACGC ((..(((....)))..))            1 (yes)
1  GCGAGTCGAAAGACCCGC (((.(((....))).)))             0 (no)
2  GCGGAGCGAAAGCGTCGC (((..((....))..)))            1 (yes)
3  GAAATTGGAAACAATTTC (((((((....)))))))             0 (no)
4  GGGCCAGGAAACTAGCCC ((((.((....)).))))            1 (yes)

----------
test_details: folding enthalpy; higher = less favourable; fluorescence melt of hairpins on a sequencing array, two-state fit
run_parameters: sodium 0.088 M
folding enthalpy vs -20 kcal/mol: at or above is Condition met, below is Condition not met.

>>> df
                                 seq_text  qualitative_label
 0  GGATGGCGAAAGCCGTCC (((.(((....))).)))  Condition not met
 1  GCTTCCGGAAACGGGAGC (((.(((....))).)))  Condition not met
 2      GATCCGCGTTCGGATC ((((((....))))))  Condition not met
 3  GAATGCGAAAGCACATTC ((((((....)))..)))      Condition met
 4  GAGCCCACGAAAGTGCTC (((..(((....))))))      Condition met
 5  GCTTGAGGAAACTTGAGC (((..((....))..)))      Condition met
 6  GCGCTCGGAAACGAGCAC (.(((((....))))).)      Condition met
 7  GGCATGACGAAAGTCGCC (((..(((....))))))  Condition not met
 8      GATCTGATACCAGATC ((((((....))))))  Condition not met
 9      GATCATTGAAATGATC ((((((....))))))  Condition not met
10  GCATGCGGAAACACATGC (((((.(....).)))))  Condition not met
11  CGAGCCGGAAACGGTTCG (((.(((....))).)))  Condition not met
12  GGGTGCGGAAACGCGCTC (.(.(((....))).).)      Condition met
13  GTCTTGGGAAACTAAGGC (.(((.(....).))).)      Condition met
14        GATCTCACTGAGATC ((((((...))))))  Condition not met
15  GAGAACCGAAAGGTACTC (((.(((....))).)))  Condition not met
16      GATCAGCTGTCTGATC ((((((....))))))  Condition not met
17  GCGACCGAAAGGTGCCGC ((((((....)))..)))      Condition met
18      GATCACGGCCGTGATC ((((((....))))))  Condition not met
19      GATCGCCTCCGCGATC ((((((....))))))  Condition not met
20          AGACGGAAACGTCT (((((....)))))  Condition not met
21  GGCTCTGGAAACAGGGCC (((.(((....))).)))  Condition not met
22          GTGATGAAAATCAC (((((....)))))  Condition not met
23  GTCAACCGAAAGGTCGAC (((.(((....))).)))  Condition not met
24  GGCGGTGCGAAAGCAGCC (((..(((....))))))      Condition met
25  GCGACACGAAAGTGACGC (((.(((....))).)))  Condition not met
26  GAGTGAGGAAACTTACTC ((((.((....)).))))  Condition not met
27  GGAGGACGAAAGTCTTCC (((.(((....))).)))  Condition not met
28  GGTGAAGGAAACTTCGTC (..((((....))))..)      Condition met
29    GCGGTCGAAAGACCCGC ((((((....))).)))  Condition not met
30      GATCAGTAGACTGATC ((((((....))))))  Condition not met
31  GTAGAAACGAAAGTTTAC (((..(((....))))))      Condition met
32  GGGTCCGGAAACGGGCTC (.(.(((....))).).)  Condition not met
33  GTGGGCGAAAGCCCTCAC ((((((....)))..)))      Condition met
34  GACCGCGAAAGCGTAGTC ((((((....)))..)))      Condition met
35  GTCTCACGAAAGTGTGAC (((.(((....))).)))  Condition not met
36  GGGCAAGGAAACCTGCCC (((((.(....).)))))  Condition not met
37  GTTAATGGAAACATTAAC (((((((....)))))))  Condition not met
38  GGGGTAGGAAACTACCCC (((((((....)))))))  Condition not met
39  GGAGCCGAAAGGCTTTCC ((((((....)))..)))      Condition met
40              GCGGAATACCGC ((((....))))  Condition not met
41  GAAAGCGGAAACGCCTTC (((.(((....))).)))      Condition met
42  GCCGTGCGAAAGCCGGGC (((..((....))..)))      Condition met
43  GGTCTCGAAAGAGGAACC ((((((....)))..)))      Condition met
44              GCGAATATTCGC ((((....))))  Condition not met
45      GATCACGCAGGTGATC ((((((....))))))  Condition not met
46  GGGGGCGAAAGCCCACCC ((((((....)))..)))      Condition met
